system tested: Dickkopf-related protein 1 (Homo sapiens)
protocol summary: DKK1 binders on small-molecule microarrays, primary screen, biochemical, small-molecule microarray, 635 nm fluorescence scan (AID 1106);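 note: score merges emission near 667 nm with signal to noise over three replicate slides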
recorded conditions: DKK1 binding, higher = more signal
Short version: composite z-score at least 0.5 is class 1, less is class 0.

Please review the following examples before continuing.
compound | label
C=CCC(OC(C)=O)[C@@H]1[C@@H](N(Cc2ccc(-c3ccccc3)cc2)C(=O)Cc2ccc(OC)cc2)c2cc(OCCCO)ccc2N1C(=O)Cc1ccc(OC)cc1 (stereo not given in full) | class 0
CC(C)c1ccc(NN2C(C(O)c3ccccc3)C=CC3C(=O)N(c4ccccc4)C(=O)C32)cc1 (stereo not given) | class 0
O=C1NC(=O)C2C1C=CC(C(O)C(c1ccccc1)c1ccccc1)N2Nc1ccccn1 (stereo not given) | class 1
Cc1ccc(S[C@]2(C(=O)NC3CC3)CC(=O)N(C3Cc4ccccc4C3)[C@@H]2c2ccc(CO)cc2I)cc1 | class 0

Please check the record "COCCOC(=O)N1C(=O)[C@@]2(c3cc(C#CCC(C(=O)OC)C(=O)OC)ccc31)[C@H](C(N)=O)[C@H]1C(=O)O[C@H](c3ccccc3)[C@H](c3ccccc3)N1[C@@H]2c1ccccc1OCCO" and state if its composite z-score is at or above 0.5.
class 0
